Data provenance: PubChem BioAssay (NCI)

assay: NCI Yeast Anticancer Drug Screen. Data for the bub3 strain (AID 167); settings: S. cerevisiae bub3 mutant strain, at 3.7 µM
Compounds without any hit were thinned out: in the full panel of roughly 79,000, 15% have a hit. Activity calls are given as the source filed them. No stated cut-off is given here; in the data, active means growth inhibition above about 70%; inactive means the rest.
The reply should name one outcome from active, inactive

Q. Status in this test for "COc1ccccc1NC(=O)c1ccc(Cl)cc1" ?
A. inactive

Q. Status in this test for "CC(C)NCCCNc1c2ccccc2nc2cccc([N+](=O)[O-])c12" ?
A. inactive

Q. Status in this test for "Fc1ccc(Nc2ccc3ccccc3c2)cc1" ?
A. inactive

Q. Status in this test for "O=C1c2ccccc2C(=O)c2sc(Nc3ccccc3Cl)nc21" ?
A. inactive

Q. Status in this test for "Cc1ccc(S(=O)(=O)NC(=O)C2C(=O)CC3(CCCCC3)CC2=O)cc1" ?
A. inactive

Q. Status in this test for "CC(C)S(=O)(=O)/C=C\S(=O)(=O)C(C)C" ?
A. inactive

Q. Status in this test for "N#C/C(=C\NC(=S)Nc1ccc(S(N)(=O)=O)cc1)C(=O)c1ccc2ccccc2c1" ?
A. inactive

Q. Status in this test for "O=C(c1cc(=O)c2ccc(O)cc2o1)c1ccc(Cl)cc1Cl" ?
A. inactive

Q. Status in this test for CC(C)C(=O)CC(Sc1ccc(N)cc1)c1ccccc1 (stereo not drawn) ?
A. active

Q. Status in this test for "CCC[CH2][Sn]([CH2]CCC)([CH2]CCC)/[C](=C/[Si](C)(C)c1ccccc1)c1ccc2c(c1)OCO2" ?
A. inactive

Q. Status in this test for C/C1=C/C2OC(=O)C3(C)C2C(CC2(C)OC1=CC2=O)OC3(O)C(C)C (stereo not drawn) ?
A. inactive

Q. Status in this test for "Nc1ccc(/C=C/c2ccc3cccnc3c2)cc1" ?
A. inactive

Q. Status in this test for "CC(C)CCC[C@@H](C)[C@H]1CC[C@H]2[C@@H]3CC[C@H]4C[C@H](N)CC[C@]4(C)[C@H]3CC[C@]12C" ?
A. inactive

Q. Status in this test for N#CCCC1C(C#N)C2(Cl)CC1(Cl)C(Cl)=C2Cl (stereo not drawn) ?
A. inactive

Q. Status in this test for "COc1c2c(c3c(c1CCC(=O)O)OC(C)(C)C=C3)OC(C)(C)C=C2" ?
A. inactive

Q. Status in this test for "Cc1cc(C)c2[s+]snc2c1" ?
A. inactive

Q. Status in this test for "Nc1ccc2cc(Br)ccc2c1Br" ?
A. inactive

Q. Status in this test for CCOC(=O)CC1(C)/C(=N\Nc2ccc([N+](=O)[O-])cc2[N+](=O)[O-])CCC2C1CCC1(C)C(C(C)CCCC(C)C)CCC21 (stereo not drawn) ?
A. inactive

Q. Status in this test for "O=C(Cc1ccccc1)NNc1nc(NNC(=O)c2ccncc2)nc(Nc2ccc(Cl)cc2)n1" ?
A. inactive

Q. Status in this test for "Cc1cc2nc3ccccc3n2c2ccccc12" ?
A. inactive

Q. Status in this test for CCCCCCC1OCC(O)C(OCCCC)O1 (stereo not drawn) ?
A. inactive

Q. Status in this test for "Cc1ccc([N+](=O)[O-])c2c(NCCC[N+](C)(C)[O-])c3ccccc3nc12" ?
A. inactive

Q. Status in this test for CCC(C)COC(=O)Nc1cccc(Cl)c1 (stereo not drawn) ?
A. inactive
